IC50 (nM), inhibition of G-CSF-mediated proliferation of BaF3 cells overview
- TARGET ENTITY: T1, human G-CSFR expressed on cells (Homo sapiens, UniProt Q99062 25-836)
- T1 sequence: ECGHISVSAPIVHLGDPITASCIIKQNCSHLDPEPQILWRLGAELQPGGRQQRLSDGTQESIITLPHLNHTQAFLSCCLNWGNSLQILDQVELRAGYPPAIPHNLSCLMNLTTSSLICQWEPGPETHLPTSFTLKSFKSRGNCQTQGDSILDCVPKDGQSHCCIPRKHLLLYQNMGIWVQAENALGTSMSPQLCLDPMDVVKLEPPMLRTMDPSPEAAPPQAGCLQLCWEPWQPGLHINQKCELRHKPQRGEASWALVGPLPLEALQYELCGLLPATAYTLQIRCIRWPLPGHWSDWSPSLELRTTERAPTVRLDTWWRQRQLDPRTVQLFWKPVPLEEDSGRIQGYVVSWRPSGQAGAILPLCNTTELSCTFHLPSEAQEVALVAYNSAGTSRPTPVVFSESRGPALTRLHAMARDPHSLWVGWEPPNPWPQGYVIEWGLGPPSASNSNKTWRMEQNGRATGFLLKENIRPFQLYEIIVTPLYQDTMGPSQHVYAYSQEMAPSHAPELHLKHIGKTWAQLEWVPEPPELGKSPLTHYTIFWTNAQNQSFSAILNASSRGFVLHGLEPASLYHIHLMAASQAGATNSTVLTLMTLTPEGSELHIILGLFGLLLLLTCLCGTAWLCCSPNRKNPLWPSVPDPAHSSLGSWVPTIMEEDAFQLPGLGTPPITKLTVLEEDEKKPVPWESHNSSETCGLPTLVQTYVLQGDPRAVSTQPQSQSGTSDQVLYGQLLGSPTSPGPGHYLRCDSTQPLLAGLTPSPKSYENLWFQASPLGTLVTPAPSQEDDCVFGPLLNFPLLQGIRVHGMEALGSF
- MEASUREMENT NOTES: cell-based or functional assay
Write the answer as a number in nM, unit excluded.

Please review the entries below; each comes with its answer.
* C1.2G-967 (antibody, human IgG4, V domains shown, also called antibody 967) VH: EVQLLESGGGLVQPGGSLRLSCAASGFTFSLYWMGWVRQAPGKGLEWVSSISSSGGVTPYADSVKGRFTISRDNSKNTLYLQMNSLRAEDTAVYYCAKLGELGMYDLWGQGTLVTVSS VL: DIQMTQSPSSLSASVGDRVTITCRASQGISSYLNWYQQKPGKAPKLLIYYASNLQNGVPSRFSGSGSGTDFTLTISSLQPEDFATYYCQQSWAYGLSFGGGTKVEIK | 0.29
* C1.2G-95 (antibody, human IgG4, V domains shown, HCDR3 wt (VH of C1.2G); also called antibody 95) VH: EVQLLESGGGLVQPGGSLRLSCAASGFTFSLYWMGWVRQAPGKGLEWVSSISSSGGVTPYADSVKGRFTISRDNSKNTLYLQMNSLRAEDTAVYYCAKLGELGWFDPWGQGTLVTVSS VL: DIQMTQSPSSLSASVGDRVTITCRASQGISSYLNWYQQKPGKAPKLLIYYASNLQNGVPSRFSGSGSGTDFTLTISSLQPEDFATYYCQQSWEYPLVFGGGTKVEIK | 0.26
* C1.2G-1002 (antibody, human IgG4, V domains shown, also called antibody 1002) VH: EVQLLESGGGLVQPGGSLRLSCAASGFTFSLYWMGWVRQAPGKGLEWVSSISSSGGVTPYADSVKGRFTISRDNSKNTLYLQMNSLRAEDTAVYYCAKLGELGMYMNWGQGTLVTVSS VL: DIQMTQSPSSLSASVGDRVTITCRASQGISSYLNWYQQKPGKAPKLLIYYASNLQNGVPSRFSGSGSGTDFTLTISSLQPEDFATYYCQQSWTYGQTFGGGTKVEIK | 0.18
* C1.2G-44 (antibody, human IgG4, V domains shown, HCDR3 wt (VH of C1.2G); also called antibody 44) VH: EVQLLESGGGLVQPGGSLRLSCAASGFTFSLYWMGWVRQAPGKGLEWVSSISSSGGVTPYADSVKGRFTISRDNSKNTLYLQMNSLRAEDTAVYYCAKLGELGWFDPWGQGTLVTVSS VL: DIQMTQSPSSLSASVGDRVTITCRASQGISSYLNWYQQKPGKAPKLLIYYASNLQNGVPSRFSGSGSGTDFTLTISSLQPEDFATYYCQQSYSYPQKFGGGTKVEIK | 0.39

For the next question, use this binder.
What IC50 (nM), inhibition of G-CSF-mediated proliferation of BaF3 cells value was documented for this binder, C1.2G-989 (antibody, human IgG4, V domains shown, also called antibody 989) VH: EVQLLESGGGLVQPGGSLRLSCAASGFTFSLYWMGWVRQAPGKGLEWVSSISSSGGVTPYADSVKGRFTISRDNSKNTLYLQMNSLRAEDTAVYYCAKLGELGQYMFWGQGTLVTVSS VL: DIQMTQSPSSLSASVGDRVTITCRASQGISSYLNWYQQKPGKAPKLLIYYASNLQNGVPSRFSGSGSGTDFTLTISSLQPEDFATYYCQQSFYYPFYFGGGTKVEIK ?
0.34
